# System: ACHN renal
# test-name: NCI tumour cell line growth inhibition, 48 h
observed-property: TGI

Answered examples (2):
> print(dat)
                                        smi  observed.property  test.result
1  COc1cc([C@@H]2C[C@H]2c2cc(SC)n[nH]2)cc(OC)c1OC                TGI     > 100 µM
2  COc1ccc(C(=O)C(c2ccc(OCc3ccccc3)cc2)c2ccc(OCc3ccccc3)cc2)cc1                TGI     > 100 µM

Field request: TGI | item: Cc1ccc2c(c1)S(=O)(=O)c1ccc3ccccc3c1N2 > 100 µM

----------
# Tested on: CAKI-1 renal
# test-name: NCI tumour cell line growth inhibition, 48 h
observed-property: TGI

> print(dat)
                                      smi  observed.property  test.result
1  O=c1cn[nH]c(=S)n1/N=C/c1c[nH]c2ccccc12                TGI     > 100 µM
2      Cc1nnc(N)nc1/C=C/c1c(O)ccc2ccccc12                TGI     > 100 µM

# returns recorded TGI (system: CAKI-1 renal) for COc1cc(-c2cc(-c3cc(OC)c(OC)c(OC)c3)nc3nc(N)[nH]c(=O)c23)ccc1Oc1ccnc2cc(Cl)ccc12 > 100 µM

----------
# Test system: SF-539 CNS
# test-name: NCI tumour cell line growth inhibition, 48 h
observed-property: TGI

Answered examples (2):
> print(dat)
                                    smi  observed.property  test.result
1              CS(=O)(=O)CC(=O)c1ccccc1                TGI     > 100 µM
2  O=C1CC(=O)NC(=NNS(=O)(=O)c2ccccc2)N1                TGI     > 100 µM

As a next step, examine the molecule that follows.
Field request: TGI | item: COc1ccc2nc3cc(Cl)ccc3c(Sc3ccc([N+](=O)[O-])cc3)c2c1 > 10 µM

----------
# System: M14 melanoma
# test-name: NCI tumour cell line growth inhibition, 48 h
Answer each item with its documented TGI.

Answered examples (4):
> print(dat)
                                   compound  test.result
1  COc1cc2c(cc1OC)C1Cc3cc(OC)c(OC)cc3C(C2)N1C     > 100 µM
2                     NCOC(=O)Cc1ccc(Br)cc1     > 100 µM
3  COc1cc2c(cc1OC)C(=O)/C(=C/c1cc(OC)c(OC)c(OC)c1)C2     > 100 µM
4  O=c1c2cc(Cl)cc(Cl)c2oc2nc3n(c(=O)c12)CCCS3     > 100 µM

Each compound below has a reported value. Please supply its TGI.
1. COC(=O)C1=C(C(=O)OC)C2(C)Nc3ccccc3C2=C(c2ccccc2)C1 (stereo not given)
2. O=C(Nc1cccc2c1[nH]c1c(-c3ccccc3)nccc12)c1ccccc1[N+](=O)[O-]
3. c1ccc2cc(C[n+]3ccn(CCCCCCCCCCn4cc[n+](Cc5ccc6ccccc6c5)c4)c3)ccc2c1
4. C=CCOC(=O)C1=C(CCC[C@@H](C)O[Si](C)(C)C(C)(C)C)N=C(N)N2[C@H](CCO)CC[C@@H]12
5. CN(c1cn(C2CC[C@@H](CO)O2)c(=O)[nH]c1=O)C1CCCCC1 (stereo not given in full)
6. CC(C)(C)c1c2c(c(C(C)(C)C)c3c1OCN(Cc1ccccc1)C3)OCN(Cc1ccccc1)C2
7. COc1ccc(C2C3CCc4ccccc4C3=NN2S(=O)(=O)c2ccc(/C=C/C(=O)O)cc2)cc1 (stereo not given)

31.8 µM
> 100 µM
15.7 µM
27.6 µM
> 100 µM
29 µM
> 100 µM

----------
# Tested on: SF-539 CNS
# test-name: NCI tumour cell line growth inhibition, 48 h
Entry flag: label 1 if TGI reaches 3 µM; label 0 if it does not.

For orientation, consider the following solved cases.
> print(dat)
                                   molecule      cat
1  Cc1c2ccncc2c(C)c2c1[nH]c1ccc(OCC(F)(F)F)cc12  label 1
2  COc1cc(-c2[o+]c3cc(O)cc(O)c3cc2O)cc(O)c1O  label 1
3       O=C1C=C(OCCCCl)C(=O)c2c(O)ccc(O)c21  label 0
4     Fc1ccc(-c2sc(-c3cccs3)cc2Cc2cccs2)cc1  label 1
5  Cn1cc(C2=C(c3cn(C)c4ccccc34)C(=O)NC2=O)c2ccccc21  label 1
6  NN1C(=O)C(CCO)S/C1=N/N=C1/SC(CCO)C(=O)N1N (stereo not drawn)  label 1

Please tell me: is the molecule CC(=O)OC12c3ccccc3-c3ccccc3C1C1C(=O)OC(=O)C12 (stereo not drawn) at or over 3 µM in terms of TGI? label 1

Please tell me: is the molecule O=C(Nc1ccccc1)c1cc(S(=O)(=O)Nc2nc3ccccc3o2)c(SCc2ccccc2)cc1Cl at or over 3 µM in terms of TGI? label 1

Please tell me: is the molecule O=C(CCCl)NNC1=NCCCN1 at or over 3 µM in terms of TGI? label 1

Please tell me: is the molecule COc1ccccc1NC(=O)c1nc2ccc([N+](=O)[O-])cc2nc1C at or over 3 µM in terms of TGI? label 1

Please tell me: is the molecule COc1ccc(C2=NN(C(=O)c3cc(OC)c(OC)c(OC)c3)C(c3ccc(N(C)C)cc3)C2)cc1 (stereo not drawn) at or over 3 µM in terms of TGI? label 0

Please tell me: is the molecule COc1ccc(/C=C2\CCC/C(=C\c3ccc(O)c(CN4CCCCC4)c3)C2=O)cc1 at or over 3 µM in terms of TGI? label 1

Please tell me: is the molecule CSC12c3cc(C)n(-c4ccccc4)c3CC(C)(C)CN1C(=O)C2Oc1ccccc1 (stereo not drawn) at or over 3 µM in terms of TGI? label 1

----------
Answer each item with its documented TGI.
# Test system: DLD-1 colon
# test-name: NCI tumour cell line growth inhibition, 48 h

Answered examples (2):
> print(dat)
                                   molecule  test.result
1  COc1ccc(C(=O)C(c2ccc(OCc3ccccc3)cc2)c2ccc(OCc3ccccc3)cc2)cc1     > 100 µM
2  CCNC(=O)O/N=C1\CCC2[C@@H]3CC=C4C[C@@H](OC5CCCCO5)CC[C@]4(C)C3CC[C@]12C (stereo partly drawn)     > 100 µM

As a next step, examine the molecule that follows.
Field request: TGI | item: COc1cccc(NC(=O)C(=O)C(C(=O)c2ccccc2F)C2OC(=O)c3ccccc32)c1 (stereo not drawn) > 100 µM

----------
# Tested on: MOLT-4 leukemia
# test-name: NCI tumour cell line growth inhibition, 48 h
Answer each item with its documented TGI.

Answered examples (4):
> print(dat)
                                   compound  observed.property  test.result
1           FC(F)(Sc1ncc[nH]1)c1nc2ccccc2o1                TGI     > 100 µM
2  COc1ccc(C2C(C)C(=O)C(C)C(c3ccc(OC)cc3)N2N=O)cc1 (stereo not given)                TGI    > 1000 µM
3  O=C1c2ccccc2-c2c1c1ccccc1c(=O)n2CCCNCCCCNCCCN1C(=O)c2ccccc2C2C(=O)c3ccccc3C21 (stereo not given)                TGI     0.711 µM
4  COC(=O)[C@H](CC(C)C)Nc1c(O)c2c(c(O)c1Cl)C(=O)C=CC2=O                TGI      > 10 µM

As a next step, examine the compound that follows.
Field request: TGI | item: O=C(O)C12CCCCC1CCCC2 (stereo not given) > 100 µM

----------
# Test system: NCI-H460 lung
# test-name: NCI tumour cell line growth inhibition, 48 h
Answer each item with its documented TGI.

Answered examples (3):
molecule	subject-of-test	TGI
COC(=O)[C@H](CC(C)C)Nc1c(O)c2c(c(O)c1Cl)C(=O)C=CC2=O	NCI-H460 lung	> 10 µM
O=C(O)c1ccc(C2SCc3nc4ccccc4n32)cc1 (centres undefined)	NCI-H460 lung	> 100 µM
COc1cc([N+](=O)[O-])c(OC)cc1-c1nc2sc(Cl)cn2c1/C=N/NC1=NCCN1	NCI-H460 lung	> 100 µM

As a next step, examine the molecule that follows.
Field request: TGI | item: COC1=CC(c2ccc[nH]2)=N/C1=C\c1[nH]c(C)c(C(=O)CCCCC(=O)Oc2ccc3c(c2)CCC2C3CC[C@]3(C)[C@@H](O)CC[C@@H]23)c1C (some centres undefined) > 100 µM
